System: HCT-116
Assay: Cytotoxicity against human HCT116 cells assessed as survival index at 10 uM after 72 hrs by FMCA method
Assay type: functional
Settings: HCT-116, 72 h, read-out: Survival
Task for the reader: assign each of the following compounds its reported viability at 10 µM.
Numbers only here, please. The scale is %.

Lookup: So what's the measured viability at 10 µM for this one? C[C@]12CC[C@H](O)C[C@H]1CC[C@@H]1[C@@H]2CC[C@]2(C)[C@@H](C3=CC(=O)OC3)[C@@H](O)C[C@]12O
Found: 63

Lookup: For the compound CC(=O)O[C@H]1CC[C@@]2(C)[C@H](CC[C@@H]3[C@@H]2CC[C@]2(C)[C@@H](C4=CC(=O)OC4)[C@@H](OC(C)=O)C[C@]32O)C1 [GITOXIGENIN DIACETATE] , what viability at 10 µM is on record?
Found: 17

Lookup: Item C[C@@H]1CC[C@@]2(OC1)O[C@H]1[C@@H](O)[C@H]3[C@@H]4CC[C@H]5C[C@@H](O[C@@H]6O[C@H](CO)[C@H](O[C@@H]7O[C@H](CO)C(O)[C@H](O[C@@H]8OC[C@@H](O)[C@H](O)[C@H]8O)[C@H]7O[C@@H]7O[C@H](CO)[C@H](O)[C@H](O[C@@H]8O[C@H](CO)[C@@H](O)[C@H](O)[C@H]8O)[C@H]7O)[C@H](O)[C@H]6O)[C@H](O)C[C@]5(C)[C@H]4CC[C@]3(C)[C@H]1[C@@H]2C (stereo partly drawn) has what recorded viability at 10 µM?
Found: 62

Lookup: What value of viability at 10 µM has been recorded for this entry: CC(=O)O[C@H]1C[C@H](O[C@H]2[C@@H](O)C[C@H](O[C@H]3[C@@H](O)C[C@H](O[C@H]4CC[C@@]5(C)[C@H](CC[C@@H]6[C@@H]5C[C@@H](O)[C@]5(C)[C@@H](C7=CC(=O)OC7)CC[C@]65O)C4)O[C@@H]3C)O[C@@H]2C)O[C@H](C)[C@H]1O[C@@H]1O[C@H](CO)[C@@H](O)[C@H](O)[C@H]1O [LANATOSIDE C]
Found: 5

Lookup: Data request, read-out viability at 10 µM, for C[C@H]1O[C@@H](O[C@H]2[C@@H](O)C[C@H](O[C@H]3[C@@H](O)C[C@H](O[C@H]4CC[C@@]5(C)[C@H](CC[C@@H]6[C@@H]5C[C@@H](O)[C@]5(C)[C@@H](C7=CC(=O)OC7)CC[C@]65O)C4)O[C@@H]3C)O[C@@H]2C)C[C@H](O)[C@@H]1O
Found: 4

Lookup: Could you share which viability at 10 µM value was measured for CO[C@H]1C[C@H](O[C@H]2CC[C@@]3(C)[C@H](CC[C@@H]4[C@@H]3CC[C@]3(C)[C@@H](C5=CC(=O)OC5)[C@@H](OC(C)=O)C[C@]43O)C2)O[C@@H](C)[C@@H]1O ?
Found: 3

Lookup: Given C[C@]12CC[C@H]3[C@@H](CC[C@]4(O)C[C@@H](O)CC[C@]34C=O)[C@@]1(O)CC[C@@H]2C1=CC(=O)OC1 , state its recorded viability at 10 µM.
Found: 21

Lookup: # lookup: viability at 10 µM of C[C@@H]1O[C@@H](O[C@H]2CC[C@]3(C=O)[C@H]4CC[C@]5(C)[C@@H](C6=CC(=O)OC6)CC[C@]5(O)[C@@H]4CC[C@]3(O)C2)[C@H](O)[C@H](O)[C@H]1O
Found: 3
